# Test system: ACHN renal
# test_details: NCI-60 one-dose screen, 48 h
# condition: 10 µM unless noted
This is part of a sample that, as a whole, favours compounds with a hit. Of some 83,000 tested, about 20% had one in any assay. Calls of active or inactive are those of the source. The calls were made as follows: active = growth percent below 10; inactive = the rest.
Outcome codes: Y for active, N for inactive

>>> df
                                    compound  assigned_class
 0  CCOc1ccccc1NC1=C(Cl)C(=O)c2nc(C)ccc2C1=O               Y
 1  COc1cc2nc(Cl)nc(Nc3cccc(C4=Nc5c(N)nc(N)nc5NC(c5ccc(F)cc5)C4)c3)c2cc1OC (configuration not stated)               N
 2  N#Cc1cccc(CN2CCC3=C(C2)C(=O)N(Cc2ccc(Cl)cc2)C2=NCCN23)c1               N
 3  C=CCn1c(SCC(=O)Nc2ccc(C(=O)/C=C/c3ccc(Br)cc3)cc2)nnc1-c1c[nH]c2ccccc12               N
 4  CC/C(=C/c1c(O)cccc1OC)c1ccc2c(OC)cccc2[o+]1               N
 5  O=C(c1ccc(O)cc1)[C@@H]1CN[C@@]2(C(=O)Nc3ccccc32)[C@H]1c1ccc(F)cc1               N
 6  CNC(=O)c1cc(Oc2ccc3nc(NC(=O)c4ccc(N5CCOCC5)c(C(F)(F)F)c4)sc3c2)ccn1               N
 7  CS(=O)(=O)Nc1cc(-c2ccc3ncc(C#N)c(NCc4ccccc4F)c3c2)cnc1Cl               N
 8  Cc1[nH]c(C(=O)Nc2ccccc2OCc2cccc(C(=O)N3CCC[C@@H](N)C3)c2)c(Cl)c1Cl               Y
 9  CS(=O)(=O)Nc1cc(-c2ccc3ncc(C#N)c(NCc4cccc(F)c4)c3c2)cnc1Cl               N
10  CCCCCc1ccc(S(=O)(=O)Nc2cccc(-c3csc(NCCN4CCN(C)CC4)n3)c2)cc1               N
11  COc1ccc2[nH]cc(-c3csc4nc(-c5ccccc5)cn34)c2c1               N
12  COc1c(N2CC3CCCNC3C2)c(F)cc2c(=O)c(C(=O)N/N=C/c3ccc(Br)cc3)cn(C3CC3)c12 (configuration not stated)               N
13  COC(=O)c1[nH]nc2c1C1(C(=O)N(C)c3ccccc31)C(C#N)=C(N)O2 (configuration not stated)               N
14  COc1cc2oc(-c3cccc(N)c3)cc(=O)c2c(OC)c1OC               N
15  CN1CCN(Cc2ccc(NC(=O)c3cncc(C#Cc4cnc5ccc(OCC6(C)COC6)nn45)c3)cc2C(F)(F)F)CC1               Y
16  CN(C)CCN(C)c1ccc2ncc(C#Cc3cncc(C(=O)Nc4ccc(CN5CCN(C)CC5)c(C(F)(F)F)c4)c3)n2n1               N
17  COc1ccc([C@@H]2c3[nH]c4ccccc4c3C[C@H]3C(=O)N(C4CCN(CC5CCCCC5)CC4)CC(=O)N23)c(OC)c1               N
18  Cn1ccnc1C(=O)/C=C/c1ccc(NC(=O)c2ccc(F)cc2)cc1               N
19  COc1ccc(-c2nc3cccc(O)c3c(=O)n2Cc2ccccc2)cc1COc1ccc(NC(C)=O)cc1               N
20   COc1ccccc1C(=O)Nc1cccc2c1C(=O)C(=O)C=C2               N
21  CCNC(=O)N1CCc2cc(OC)c(OCCc3ccc(OC)cc3)cc2C1c1ccc([N+](=O)[O-])cc1C (configuration not stated)               N
22  CCCn1cnc2c(c1=N)C(c1ccc(Cl)cc1)c1sc3c(C)cccc3c1O2 (configuration not stated)               N
23  O=C1CCC(N2C(=O)c3ccc(NS(=O)(=O)c4ccccc4OC(F)(F)F)cc3C2=O)C(=O)N1 (configuration not stated)               N
24  O=C1CCCC2=C1C(c1c[nH]c3ccc(Br)cc13)Cc1cc(Br)ccc1N2 (configuration not stated)               N
25  COc1ccc2c(c1)Oc1nc(N)c(C#N)c(N)c1C2Sc1ccc(C)cc1 (configuration not stated)               Y
26  O=C1[C@H]2Cc3c([nH]c4ccccc34)[C@@H](c3c(Cl)cccc3Cl)N2C(=O)CN1C1CCN(CC2CCCCC2)CC1               N
27  Cc1nn(-c2ccccc2)c2ncnc(N/N=C/c3ccccc3)c12               N
28  COc1cccc2cc(-c3cc4ccccc4[nH]3)/c(=N\NC(=O)c3ccc(Cl)cc3)oc12               N
29  O=S(=O)(NC1c2ccccc2C[C@H]1O)c1ccc(Cl)cc1Cl (some centres not stated)               N
30  CCCCCc1ccc(S(=O)(=O)Nc2cc(-c3csc(NC(=O)CN4CCN(CCO)CC4)n3)ccc2OC)cc1               N
31  C=CC(=O)N1CC=C(c2cc3c(N[C@H](C)c4ccccc4)ncnc3[nH]2)CC1               N
32  Cc1ccc(CSc2nc(-c3ccc(Cl)cc3)c(C#N)c(N3CCOCC3)n2)cc1               N
33  CCn1c2ccccc2c2cc(-n3nncc3-c3ccccc3)ccc21               N
34  O=C(NCCn1ccnc1)c1ccc(-c2nc3ccc4[nH]ncc4c3c3c2CCCC3)cc1               N
35  CCCn1cnc2c(c1=N)C(c1ccc(OC)cc1)c1sc3c(CC)cccc3c1O2 (configuration not stated)               N
36  CCCCCc1ccc(S(=O)(=O)Nc2cccc(-c3csc(NC(=O)CN4CCN(CCO)CC4)n3)c2)cc1               N

====

# Test system: A549/ATCC NSCLC
# test_details: NCI-60 one-dose screen, 48 h
# condition: 10 µM unless noted
About 83,000 compounds went through this panel and 20% of them were active in at least one assay; those are over-represented in the sample as a whole. Calls of active or inactive are those of the source. Rule for the calls: active = growth percent below 10; inactive = the rest.
Outcome codes: TRUE (active), FALSE (inactive)

                                   compound  assigned_class
0  CCO/C=N/C1=C(C#N)C(c2ccc(OC)cc2)c2sc3c(CC)cccc3c2O1 (stereo not given)           FALSE
1  CCCn1cnc2c(c1=N)C(c1ccc(OC)cc1)c1sc3c(CC)cccc3c1O2 (stereo not given)           FALSE
2  Nc1ncc(-c2ccc3ncnc(N4CCc5cc(F)c(Cl)cc54)c3c2)cn1           FALSE
3  O=C1[C@H]2Cc3c([nH]c4ccccc34)[C@@H](c3ccc(Br)cc3)N2C(=O)CN1C1CCN(CC2CCCCC2)CC1            TRUE
4  O=C(CN1CCN(c2cc(=O)n(-c3ccccc3)c3ccccc23)CC1)Nc1nc(-c2ccc(Cl)cc2)cs1           FALSE

====

Reported growth is given for each of the following compounds.
# Tested on: HT29 colon
# test_details: NCI-60 one-dose screen, 48 h (100 = growth as untreated, 0 = no growth, -100 = all killed)
# condition: 10 µM unless noted
This is part of a sample that, as a whole, favours compounds with a hit. Of some 83,000 tested, about 20% had one in any assay.
observation_type: growth (%)

>>> print(df.to_string())
                                   compound  display_unit  numeric_readout
0  NC(=O)c1c(NC(=O)c2ccccc2C(F)(F)F)sc2c1CCC(=O)C2             %             18.7
1  CC(=O)N1C(=S)NC(=O)C1CC(C)C (stereo not given)             %              115
2  O=S(=O)(NCCNc1nccc(-n2cnc3ccccc32)n1)c1ccc(Br)cc1             %             97.2
3  COC[C@]12CCC(C)(C)C[C@H]1C1=CC[C@@H]3[C@@]4(C)CCCNC(C)(C)[C@@H]4CC[C@@]3(C)[C@]1(C)CC2             %              -28
4  COc1cccc(/C=C(/C)c2ccc3cccc(OC)c3[o+]2)c1O             %              114

====

# Test system: SR leukemia
# test_details: NCI-60 one-dose screen, 48 h (100 = growth as untreated, 0 = no growth, -100 = all killed)
# condition: 10 µM unless noted
# Description: Growth inhibition of the SR human tumor cell line is measured as a screen for anti-cancer activity. Cells are grown in 96 well plates and exposed to the test compound for 48 hours. Compounds are tested at a single concentration, which is 10^-5 M for most compounds. The reported endpoint is percent growth (GI% or GIPRCNT), where numbers from 0 - 100% represent growth inhibition, and numbers from -100% - 0 represent cell death. For example, a value of 40 represents 60% growth inhibition. […]
Compounds without any hit were thinned out: in the full panel of roughly 83,000, 20% have a hit.
Threshold check on growth: strictly below 80% is condition met; on or above 80% is condition not met.

                                    compound  measured_target     assigned_class
 0  CC/C(=C/c1c(O)cccc1OC)c1ccc2c(OC)cccc2[o+]1      SR leukemia  condition not met
 1  COc1c(N2CC3CCCNC3C2)c(F)cc2c(=O)c(C(=O)N/N=C/c3ccc(Br)cc3)cn(C3CC3)c12 (stereo not drawn)      SR leukemia      condition met
 2  Cc1cc(C)cc(C(=O)Nc2cccc(C#Cc3cccc4[nH]nc(N)c34)c2)c1      SR leukemia      condition met
 3  C=C(C=O)[C@@H]1CC[C@]2(CO)CC[C@]3(C)[C@H](CC[C@@H]4[C@@]5(C)CCCNC(C)(C)[C@@H]5CC[C@]43C)[C@@H]12      SR leukemia      condition met
 4  CN(Cc1ccccc1)S(=O)(=O)/N=C1\NC(=O)NC1=C(Cl)Cl      SR leukemia      condition met
 5  N#Cc1cn(Cc2ccc(Cl)cc2Cl)c(C(=O)c2ccc(Br)cc2)c1N      SR leukemia  condition not met
 6  NC(=O)c1cccc(-n2ccc3cc(NC(=O)Nc4ccc(N5CCOCC5)c(C(F)(F)F)c4)ccc32)n1      SR leukemia      condition met
 7  C=C=COc1cccc(/C(N)=N/C(N)=N/c2nc3ccccc3s2)c1      SR leukemia      condition met
 8  O=C(Nc1ccc(N=Cc2c(O)[nH]c3ccccc23)cc1)Nc1nccs1      SR leukemia      condition met
 9  N#C/C(=C\c1ccc(-c2ccc(Cl)cc2Cl)o1)c1ccc(F)cc1      SR leukemia  condition not met
10  CCNC(=O)N1CCc2cc(OC)c(OCCc3ccc(OC)nc3)cc2C1c1ccc(OC)cc1C (stereo not drawn)      SR leukemia      condition met
11  C=C(C=O)[C@@H]1CC[C@]2(C)[C@H](C(=O)C=C3[C@H]4C[C@](C)(C(=O)OC)CC[C@]4(C)CC[C@]32C)[C@@]1(C)CCC#N      SR leukemia      condition met
12  Oc1[nH]c2ccccc2c1Nn1c(N=N/C=c2/ccc3c(c2)C=NN=3)n[nH]c1=S      SR leukemia  condition not met
13  CNC(=O)c1cc(Oc2ccc3nc(NC(=O)c4ccc(N5CCOCC5)c(C(F)(F)F)c4)sc3c2)ccn1      SR leukemia      condition met
14  CCOC(=O)C(=O)CC(=O)N1C(=S)NC(=O)C1CC(C)C (stereo not drawn)      SR leukemia  condition not met
15  Cc1ccc(NC(=O)c2ccc(CN3CCOCC3)c(C(F)(F)F)c2)cc1Oc1ccc(-c2[nH]nc3ncnc(N)c23)cc1      SR leukemia      condition met
16  CCN(CC)c1ccc2c(c1)Oc1nc(N)c(C#N)c(N)c1C2Sc1ccc(C)cc1 (stereo not drawn)      SR leukemia      condition met
